Reference source for all entries: patent US8143290B2

Molecular target: recombinant human GR (Homo sapiens, UniProt P04150)
Sequence (P04150 1-777): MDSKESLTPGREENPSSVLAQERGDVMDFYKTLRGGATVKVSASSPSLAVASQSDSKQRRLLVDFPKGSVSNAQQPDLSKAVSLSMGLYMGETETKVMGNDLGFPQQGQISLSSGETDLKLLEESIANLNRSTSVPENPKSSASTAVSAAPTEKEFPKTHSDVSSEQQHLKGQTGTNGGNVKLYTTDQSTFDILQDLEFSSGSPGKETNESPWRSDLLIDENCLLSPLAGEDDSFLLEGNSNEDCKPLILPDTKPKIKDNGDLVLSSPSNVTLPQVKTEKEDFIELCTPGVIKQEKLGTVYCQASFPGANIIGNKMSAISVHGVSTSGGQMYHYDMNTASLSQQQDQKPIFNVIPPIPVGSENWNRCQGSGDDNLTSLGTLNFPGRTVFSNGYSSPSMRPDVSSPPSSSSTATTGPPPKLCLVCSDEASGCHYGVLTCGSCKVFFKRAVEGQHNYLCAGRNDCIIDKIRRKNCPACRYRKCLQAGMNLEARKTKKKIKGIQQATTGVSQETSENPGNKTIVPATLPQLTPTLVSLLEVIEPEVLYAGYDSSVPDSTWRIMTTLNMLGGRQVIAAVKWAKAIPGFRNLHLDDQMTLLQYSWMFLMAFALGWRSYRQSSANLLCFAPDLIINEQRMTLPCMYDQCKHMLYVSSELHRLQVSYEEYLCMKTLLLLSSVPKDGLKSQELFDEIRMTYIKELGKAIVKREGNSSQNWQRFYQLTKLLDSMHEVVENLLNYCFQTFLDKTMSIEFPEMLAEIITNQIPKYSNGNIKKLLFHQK
Assay: Human Glucocorticoid Receptor (GR) Assay, fluorescence polarization
Details: GS Red tracer, incubated 2 h at r.t., XLfit model 205, read-out: GRhuFL_FP_v2 Mean IC50
READOUT_NAME: IC50 (nM)
Answers are plain numbers, in nM.

The examples below pair each entry with its known result.
C[C@H](NC(=O)C(F)(F)F)[C@H](Oc1ccc2c(cnn2-c2cccc(CN(C)C)c2)c1)c1ccccc1 [Example 146]; 78
Cc1cc([C@@H](Oc2ccc3c(cnn3-c3ccc(F)cc3)c2)[C@H](C)NC(=O)C(F)(F)F)ccc1Cl [Example 168]; 6.2
C[C@H](NC(=O)C(F)(F)F)[C@H](Oc1ccc2c(cnn2-c2ccc(F)cc2)c1)c1ccc(SC2CC2)cc1 [Example 15]; 6.8

Okay, next one:
Report IC50 for COc1cccc([C@@H](Oc2ccc3c(cnn3-c3ccc(F)cc3)c2)[C@H](C)NC(=O)c2sccc2C)c1 [Example 132] please.
4.1

###

Biological target: recombinant human GR (Homo sapiens, UniProt P04150)
Test: Human Glucocorticoid Receptor (GR) Assay, fluorescence polarization
Settings: GS Red tracer, incubated 2 h at r.t., XLfit model 205, read-out: GRhuFL_FP_v2 Mean IC50
Classify: Condition met when IC50 is strictly less than 4 nM; Condition not met when IC50 is not.

// known answers, use as guide
COc1cccc([C@@H](Oc2ccc3c(cnn3-c3ccc(F)cc3)c2)[C@H](C)NC(=O)c2cc(C)n(C)n2)c1; Condition not met
COc1ccc([C@@H](Oc2ccc3c(cnn3-c3ccc(F)cc3)c2)[C@H](C)NC(=O)c2ncc(C)s2)cc1F; Condition met
COc1cccc([C@@H](Oc2ccc3c(cnn3-c3ccc(F)cc3)c2)[C@H](C)NC(=O)c2ccc(S(C)(=O)=O)s2)c1; Condition not met
CC(C)(C)C(=O)NC(C(Oc1ccc2c(cnn2-c2ccc(F)cc2)c1)c1ccccc1)C(F)(F)F (single isomer, unassigned) [Example 147D1E2]; Condition not met
COc1ccc(F)cc1[C@@H](Oc1ccc2c(cnn2-c2ccc(F)cc2)c1)[C@H](C)NC(=O)c1ncc(C)s1; Condition not met

Attention now shifts to the item below.
Strictly below 4 nM: is that where IC50 of Cc1cnc(C(=O)N[C@@H](C)[C@H](Oc2ccc3c(cnn3-c3ccc(F)cc3)c2)c2cccc(F)c2)s1 sits?
Condition met

###

Target: recombinant human GR (Homo sapiens)
Assay: Human Glucocorticoid Receptor (GR) Assay, fluorescence polarization
Details: GS Red tracer, incubated 2 h at r.t., XLfit model 205, read-out: GRhuFL_FP_v2 Mean IC50
Experimental: Human Glucocorticoid Receptor (GR) Assay The assay is based on a commercial kit from Panvera/Invitrogen (Part number P2893). The assay technology is fluorescence polarization. […] The GR and Stabilizing Peptide reagents are stored at −70° C. while the GS Red is stored at −20° C. Also included in the kit are 1M DTT (Panvera, Part number P2325, stored at −20° C.) and GR Screening buffer 10× (Panvera, Part number P2814, stored at −70° C. initially but once thawed stored at r.t.). […]
Exercise: for every item that follows, state its recorded IC50.
Could you give the number and then its unit, please?

Worked cases, IC50 given:
COc1ccc([C@@H](Oc2ccc3c(cnn3-c3ccc(F)cc3)c2)[C@H](C)NC(=O)C(F)(F)F)cc1F; 6.5 nM
C[C@H](NC(=O)C(F)(F)F)[C@H](Oc1ccc2c(cnn2-c2ccc(CN3CCOCC3)cc2)c1)c1ccccc1; 5.6 nM
C[C@@H](NC(=O)C(F)(F)F)[C@H](COc1ccccc1)Oc1ccc2c(cnn2-c2ccc(F)cc2)c1 (single isomer, unassigned); 76 nM
C[C@H](NC(=O)C(C)(C)C)[C@H](Oc1ccc2c(cnn2-c2ccc(F)cc2)c1)c1cc(F)cc(Cl)c1; 5.1 nM
COCC(=O)N[C@@H](C)[C@H](Oc1ccc2c(cnn2-c2ccc(F)cc2)c1)c1ccc(C)c(C)c1; 13 nM

Provide IC50 values for the following items, in order.
1. Cc1cnc(C(=O)N[C@@H](C)[C@H](Oc2ccc3c(cnn3-c3ccc(F)cc3)c2)c2ccc(C)c(F)c2)s1
2. COc1cccc([C@@H](Oc2ccc3c(cnn3-c3ccc(F)cc3)c2)[C@H](C)NC(=O)C(=O)OC(C)(C)C)c1
3. COc1cccc([C@@H](Oc2ccc3c(cnn3-c3ccc(F)cc3)c2)[C@H](C)NC(=O)c2ccncn2)c1
4. COc1cccc([C@@H](Oc2ccc3c(cnn3-c3ccc(F)cc3)c2)[C@H](C)NC(=O)c2ccc(Cl)s2)c1
5. C[C@H](NC(=O)C(F)(F)F)[C@H](Sc1ccc2c(cnn2-c2ccc(F)cc2)c1)c1ccccc1
6. COc1cccc([C@@H](Oc2ccc3c(cnn3-c3ccc(F)cc3)c2)[C@H](C)NC(=O)c2nc3ccccc3s2)c1
7. COc1cccc([C@@H](Oc2ccc3c(cnn3-c3ccc(F)cc3)c2)[C@H](C)NC(=O)c2cc3ccccc3s2)c1

1. 3.9 nM
2. 5.3 nM
3. 3.2 nM
4. 5.7 nM
5. 2.6 nM
6. 8.6 nM
7. 4 nM

Each compound below has a reported value. Please supply its IC50.
1. CC[S+]([O-])Cc1ccc([C@@H](Oc2ccc3c(cnn3-c3ccc(F)cc3)c2)[C@H](C)NC(=O)C(F)(F)F)cc1 (some centres unmarked)
2. CC(C)(C)C(=O)NC(C(Oc1ccc2c(cnn2-c2ccc(F)cc2)c1)c1ccccc1)C(F)(F)F (single isomer, unassigned) [Example 147D2E1]

1: 5.9 nM; 2: 7.4 nM

###

Provide the recorded pIC50 for the entries that follow.
Target: recombinant human GR (Homo sapiens, UniProt P04150)
Assay: Human Glucocorticoid Receptor (GR) Assay, fluorescence polarization
Settings: GS Red tracer, incubated 2 h at r.t., XLfit model 205, read-out: GRhuFL_FP_v2 Mean IC50
One number for each entry, as −log10 of the molar value.

For each of the items listed, what is its pIC50?
1. C[C@H](NC(=O)c1ccco1)[C@H](Oc1ccc2c(cnn2-c2ccncc2)c1)c1ccccc1 [Example 115]
2. C[C@H](NC(=O)C(C)(C)C)[C@H](Oc1ccc2c(cnn2-c2ccc(F)cc2)c1)c1cccc(Cl)c1 [Example 178]
3. C[C@H](NC(=O)CO)[C@H](Oc1ccc2c(cnn2-c2ccc(F)cc2)c1)c1ccc(C(F)(F)F)cc1 [Example 60]
4. CCc1ccc([C@@H](Oc2ccc3c(cnn3-c3ccc(F)cc3)c2)[C@H](C)NC(=O)CF)cc1 [Example 50]

8.42
8.41
8.48
8.54

###

Target: recombinant human GR (Homo sapiens, UniProt P04150)
Sequence (P04150 1-777): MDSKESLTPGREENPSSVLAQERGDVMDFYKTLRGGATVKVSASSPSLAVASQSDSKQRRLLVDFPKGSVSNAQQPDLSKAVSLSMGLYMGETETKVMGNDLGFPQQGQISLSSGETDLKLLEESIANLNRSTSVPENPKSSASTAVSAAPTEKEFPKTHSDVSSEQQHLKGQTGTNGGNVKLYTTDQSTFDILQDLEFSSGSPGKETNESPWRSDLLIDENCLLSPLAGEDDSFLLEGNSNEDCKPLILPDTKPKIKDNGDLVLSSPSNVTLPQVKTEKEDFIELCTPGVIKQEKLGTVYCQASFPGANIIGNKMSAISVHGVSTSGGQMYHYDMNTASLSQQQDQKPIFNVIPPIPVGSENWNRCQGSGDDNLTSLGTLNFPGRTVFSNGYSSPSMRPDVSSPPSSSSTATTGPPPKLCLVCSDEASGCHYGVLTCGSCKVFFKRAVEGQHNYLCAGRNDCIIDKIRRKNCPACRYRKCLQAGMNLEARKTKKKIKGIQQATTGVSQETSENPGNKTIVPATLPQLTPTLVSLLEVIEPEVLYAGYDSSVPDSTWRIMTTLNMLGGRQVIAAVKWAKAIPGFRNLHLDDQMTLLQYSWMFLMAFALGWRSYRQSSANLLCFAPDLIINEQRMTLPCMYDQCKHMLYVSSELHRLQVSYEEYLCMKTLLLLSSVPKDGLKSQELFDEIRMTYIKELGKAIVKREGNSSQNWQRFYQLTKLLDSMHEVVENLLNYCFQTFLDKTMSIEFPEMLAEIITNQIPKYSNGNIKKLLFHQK
Test: Human Glucocorticoid Receptor (GR) Assay, fluorescence polarization
Settings: GS Red tracer, incubated 2 h at r.t., XLfit model 205, read-out: GRhuFL_FP_v2 Mean IC50
// assign satisfied if IC50 falls strictly below 7 nM, else not satisfied (ties count as not satisfied)

The following compounds have reported results that may help.
Cc1c(F)cccc1[C@@H](Oc1ccc2c(cnn2-c2ccc(F)cc2)c1)[C@H](C)NC(=O)C(F)(F)F; not satisfied
Cc1cc(F)ccc1[C@@H](Oc1ccc2c(cnn2-c2ccc(F)cc2)c1)[C@H](C)NC(=O)C(C)(C)F; satisfied
C[C@H](NC(=O)C1(C)CC1)[C@H](Oc1ccc2c(cnn2-c2ccc(F)cc2)c1)c1cccc(F)c1; satisfied
CC(C)C(=O)NC(=O)C(Oc1ccc2c(cnn2-c2ccc(F)cc2)c1)c1ccccc1 (centres unmarked); not satisfied

Quick check: IC50 of CCC(=O)N[C@@H](C)[C@H](Oc1ccc2c(cnn2-c2ccc(F)cc2)c1)c1ccccc1 under 7 nM?
satisfied

Item C[C@H](NC(=O)C1(C)CC1)[C@H](Oc1ccc2c(cnn2-c2ccc(F)cc2)c1)c1cc(F)cc(Cl)c1 : IC50 beneath 7 nM, strictly?
satisfied

Dear reviewer, please state whether COc1cccc([C@@H](Oc2ccc3c(cnn3-c3ccc(Cl)cc3)c2)[C@H](C)NC(=O)C(C)(F)F)c1 has IC50 strictly beneath 7 nM.
satisfied
